- Assayed target: T1, human serum albumin (human, UniProt P02768 25-609)
- T1 construct: also called HSA
- Assay protocol: SPR pH 7.4
Assay endpoint: Kd (nM)
Form entry: value (nM) — number only.

Here's what some known entries look like.
Binder	Assay endpoint	Observed value
T026301266 (other, tetravalent ISVD construct; also called X-FcRn-Y-ALB23002) VHH 1: EVQLVESGGGVVQPGGSLRLSCAASGFTFSSYAMYWVRQAPGKGLEWVSAISSGGGSTDYADSVKGRFTISRDNSKNTLYLQMNSLRPEDTALYYCAADTLYTSLTWYSYWGQGTLVTVSS VHH 2: EVQLVESGGGVVQPGGSLRLSCAASGFTFRSFGMSWVRQAPGKGPEWVSSISGSGSDTLYADSVKGRFTISRDNSKNTLYLQMNSLRPEDTALYYCTIGGSLSRSSQGTLVTVSSA	Kd	8.6
T026301257 (bispecific antibody, not shown: small tags and cut ends, tetravalent ISVD construct; also called X-Y-FcRn-35GS-ALB23002) EVQLVESGGGVVQPGGSLRLSCAASGFTFSSYAMYWVRQAPGKGLEWVSAISSGGGSTDYADSVKGRFTISRDNSKNTLYLQMNSLRPEDTALYYCAADTLYTSLTWYSYWGQGTLVTVSSGGGGSGGGGSGGGGSGGGGSGGGGSGGGGSGGGGSEVQLVESGGGVVQPGGSLRLSCAASGFTFRSFGMSWVRQAPGKGPEWVSSISGSGSDTLYADSVKGRFTISRDNSKNTLYLQMNSLRPEDTALYYCTIGGSLSRSSQGTLVTVSSA	Kd	11
T026301259 (bispecific antibody, not shown: small tags and cut ends, tetravalent ISVD construct; also called X-Y-FcRn-ALB23002) EVQLVESGGGVVQPGGSLRLSCAASGFTFSSYAMYWVRQAPGKGLEWVSAISSGGGSTDYADSVKGRFTISRDNSKNTLYLQMNSLRPEDTALYYCAADTLYTSLTWYSYWGQGTLVTVSSGGGGSGGGSEVQLVESGGGVVQPGGSLRLSCAASGFTFRSFGMSWVRQAPGKGPEWVSSISGSGSDTLYADSVKGRFTISRDNSKNTLYLQMNSLRPEDTALYYCTIGGSLSRSSQGTLVTVSSA	Kd	7.32

Would you kindly look at the next entry?
Field request: Kd | item: T026301366 (bispecific antibody, not shown: small tags and cut ends, tetravalent ISVD construct; also called X-Y-FcRn(W100cS)-35GS-ALB23002) EVQLVESGGGVVQPGGSLRLSCAASGFTFSSYAMYWVRQAPGKGLEWVSAISSGGGSTDYADSVKGRFTISRDNSKNTLYLQMNSLRPEDTALYYCAADTLYTSLTSYSYWGQGTLVTVSSGGGGSGGGGSGGGGSGGGGSGGGGSGGGGSGGGGSEVQLVESGGGVVQPGGSLRLSCAASGFTFRSFGMSWVRQAPGKGPEWVSSISGSGSDTLYADSVKGRFTISRDNSKNTLYLQMNSLRPEDTALYYCTIGGSLSRSSQGTLVTVSSA
7.5
